# assay system: Mushroom tyrosinase (Agaricus bisporus, UniProt O42713+Q00024+C7FF04+C7FF05)
The following compounds are shown together with reported IC50 values.
Numbers only here, please. The scale is mM.

Completed entries (count: 2):
1. O=C(/C=C/c1ccc(O)cc1)NCCc1ccc(O)c(O)c1 : 4.3
2. COc1cc(O)c2c(=O)c(O[C@@H]3O[C@@H](C)[C@H](O)[C@@H](O)[C@H]3O)c(-c3cc(O)c(O)c(O)c3)oc2c1O[C@@H]1O[C@H](CO)[C@@H](O)[C@H](O)[C@H]1O : 0.9

Query :: Write down the reported IC50 (system: Mushroom tyrosinase (Agaricus bisporus, UniProt O42713+Q00024+C7FF04+C7FF05)) of COc1cc(O)c2c(=O)c(O[C@@H]3O[C@@H](C)[C@H](O)[C@@H](O)[C@H]3O)c(-c3cc(O)c(O)c(O)c3)oc2c1
Result :: 1.1

Query :: Write down the reported IC50 (system: Mushroom tyrosinase (Agaricus bisporus, UniProt O42713+Q00024+C7FF04+C7FF05)) of COc1cc(O)c2c(=O)c(O[C@@H]3O[C@@H](C)[C@H](O)[C@@H](O)[C@H]3O)c(-c3cc(O)c(O)c(O)c3)oc2c1O
Result :: 1.2

Query :: Write down the reported IC50 (system: Mushroom tyrosinase (Agaricus bisporus, UniProt O42713+Q00024+C7FF04+C7FF05)) of Oc1cc(O)c2c(c1)O[C@H](c1cc(O)c(O)c(O)c1)[C@@H](O)C2
Result :: 0.16

Query :: Write down the reported IC50 (system: Mushroom tyrosinase (Agaricus bisporus, UniProt O42713+Q00024+C7FF04+C7FF05)) of COc1cc(O)c2c(=O)c(O[C@@H]3O[C@@H](C)[C@H](O)[C@@H](O)[C@H]3O)c(-c3cc(O)c(O)c(O)c3)oc2c1OC(C)=O
Result :: 4.7

Query :: Write down the reported IC50 (system: Mushroom tyrosinase (Agaricus bisporus, UniProt O42713+Q00024+C7FF04+C7FF05)) of COc1cc(O)c2c(=O)c(O[C@@H]3O[C@@H](C)[C@H](O)[C@@H](O)[C@H]3O)c(-c3ccc(O)c(O)c3)oc2c1O[C@@H]1O[C@H](CO)[C@@H](O)[C@H](O)[C@H]1O
Result :: 4
